molecular target: Human GLP-1 receptor (human, UniProt P43220 24-463); assay: cell-based or functional assay
Sequence (P43220 24-463): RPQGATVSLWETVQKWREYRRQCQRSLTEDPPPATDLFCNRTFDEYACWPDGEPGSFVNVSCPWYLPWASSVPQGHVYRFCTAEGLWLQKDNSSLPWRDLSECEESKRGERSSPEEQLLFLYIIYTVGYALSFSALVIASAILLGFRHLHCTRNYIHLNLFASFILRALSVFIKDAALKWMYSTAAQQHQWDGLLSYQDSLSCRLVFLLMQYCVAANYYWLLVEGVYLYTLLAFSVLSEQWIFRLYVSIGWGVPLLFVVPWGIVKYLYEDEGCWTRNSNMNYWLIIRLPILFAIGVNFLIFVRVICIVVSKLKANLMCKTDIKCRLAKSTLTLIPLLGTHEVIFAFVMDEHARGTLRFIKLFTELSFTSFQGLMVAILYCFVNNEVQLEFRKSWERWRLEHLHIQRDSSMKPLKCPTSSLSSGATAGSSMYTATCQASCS
Where no end group is shown, it is not given here. [ ]: non-standard residue; d: D form. αMePhe(2-F) = C[C@](N)(Cc1ccccc1F)C(=O)O; Ac3c = NC1(C(=O)O)CC1; Aib = CC(C)(N)C(=O)O
Examples of binders with documented cAMP release, % activity with respect to control; test compound 10 nM follow.
measuredAttribute: cAMP release, % activity with respect to control; test compound 10 nM (%)

>  <binder>
HXQGTXTSDXX (Aib at 2; α-Me-2F-Phe at 6; Bip(OMe) at 10; Bip(Pyr) at 11) [Seq. ID. No. 30: H-Aib-QGT-(α-Me-2F-Phe)-TSD-Bip(OMe)-Bip(Pyr)]

>  <unitAnnotation>
%

>  <resultNumber>
99

$$$$
>  <binder>
HAQGT[αMePhe(2-F)]TSD[Bip(OMe)][Bip(2Me)] [Seq. ID. No. 25: HAQGT-(α-Me-2F-Phe)-TSD-Bip(OMe)-Bip(2Me)]

>  <unitAnnotation>
%

>  <resultNumber>
77

$$$$
>  <binder>
HAQGTFTSD[Bip(OMe)][Bip(2F)] [Seq. ID. No. 11: HAQGTFTSD-Bip(OMe)-Bip(2F)]

>  <unitAnnotation>
%

>  <resultNumber>
86

$$$$
>  <binder>
HXQGTXTSDXX (not fully specified; ACP at 2; α-Me-2F-Phe at 6; Bip(OMe) at 10; Bip(Pyr) at 11) [Seq. ID. No. 34: H-(ACP)-QGT-(α-Me-2F-Phe)-TSD-Bip(OMe)-Bip(Pyr)]

>  <unitAnnotation>
%

>  <resultNumber>
99

$$$$
>  <binder>
HAQGT[αMePhe(2-F)]TSD[Bip(OMe)][Bip(2CF3)] [Seq. ID. No. 28: HAQGT-(α-Me-2F-Phe)-TSD-Bip(OMe)-Bip(2CF3)]

>  <unitAnnotation>
%

>  <resultNumber>
88

$$$$
>  <binder>
HXQGTXTSDXX (ACP at 2; α-Me-2F-Phe at 6; Bip(OMe) at 10; Bip(2Me) at 11) [Seq. ID. No. 33: H-(ACP)-QGT-(α-Me-2F-Phe)-TSD-Bip(OMe)-Bip(2Me)]

>  <unitAnnotation>
%

>  <resultNumber>
99

$$$$
>  <binder>
H[Aib]QGTFTSD[Bip(OMe)][Bip(Pyr)] [Seq. ID. No. 14: H-Aib-QGTFTSD-Bip(OMe)-Bip(Pyr)]

>  <unitAnnotation>
%

>  <resultNumber>
94

$$$$
>  <binder>
HSQGTFTSD[Bip(OMe)][Bip(2F)] (not fully specified (C-terminus); printed as HSQGTFTSD-Bip(OMe)-Bip(2F)) [Seq. ID. No. 7: HSQGTFTSD-Bip(OMe)-Bip(2F)]

>  <unitAnnotation>
%

>  <resultNumber>
84

$$$$
>  <binder>
HXQGTXTSDXX (Aib at 2; α-Me-2F-Phe at 6; Bip(OMe) at 10; Bip(2Me) at 11) [Seq. ID. No. 29: H-Aib-QGT-(α-Me-2F-Phe)-TSD-Bip(OMe)-Bip(2Me)]

>  <unitAnnotation>
%

>  <resultNumber>
99

$$$$
>  <binder>
HAQGTFTSD[Bip(OMe)][Bip(2Me)] (not fully specified (C-terminus); printed as HAQGTFTSD-Bip(OMe)-Bip(2Me)) [Seq. ID. No. 9: HAQGTFTSD-Bip(OMe)-Bip(2Me)]

>  <unitAnnotation>
%

>  <resultNumber>
77

$$$$
>  <binder>
H[Ac3c]QGTFTSD[Bip(OMe)][Bip(2Me)] [Seq. ID. No. 17: H-(ACP)-QGTFTSD-Bip(OMe)-Bip(2Me)]

>  <unitAnnotation>
%

>  <resultNumber>
99

$$$$
>  <binder>
HXQGTXTSDXX (Aib at 2; α-Me-2F-Phe at 6; Bip(OMe) at 10; Bip(2F) at 11) [Seq. ID. No. 31: H-Aib-QGT-(α-Me-2F-Phe)-TSD-Bip(OMe)-Bip(2F)]

>  <unitAnnotation>
%

>  <resultNumber>
99

$$$$
>  <binder>
HXQGTXTSDXX (not fully specified; ACP at 2; α-Me-2F-Phe at 6; Bip(OMe) at 10; Bip(2F) at 11) [Seq. ID. No. 35: H-(ACP)-QGT-(α-Me-2F-Phe)-TSD-Bip(OMe)-Bip(2F)]

>  <unitAnnotation>
%

>  <resultNumber>
99

$$$$
